Test system: A549
Test: Antiproliferative activity against human A549 cells after 72 hrs by MTT assay
Assay type: functional, cell-based
Details: Homo sapiens, A549, 72 h; read-out: IC50
pIC50: −log10 of the molar value.
Everything with pIC50 lower than 6 is Not met; everything else, including exactly 6, is Met.

{"item smiles": "O=C(N/N=C/c1ccc(O)cc1O)Nc1ccc(Oc2ccnc3[nH]ccc23)c(F)c1", "assigned label": "Not met"}

## Task Record O=C(N/N=C/c1cccn1CCCN1CCCC1)Nc1ccc(Oc2ccnc3[nH]ccc23)c(F)c1 ; criterion: pIC50 no lower than 6. Met?
## Result Not met

## Task Would you say CCN(CC)CCn1cccc1/C=N/NC(=O)Nc1ccc(Oc2ccnc3[nH]ccc23)cc1 shows pIC50 at minimum 6?
## Result Not met

* * *

Please respond with reported pIC50 for every item in the list.
Tested on: A549
Assay: Antiproliferative activity against human A549 cells after 72 hrs by MTT assay
Format: functional, cell-based
Conditions: Homo sapiens, A549, 72 h; read-out: IC50
One number for each entry, as −log10 of the molar value.

{"item smiles": "O=C(N/N=C/c1cccn1CCCN1CCCC1)Nc1ccc(Oc2ccnc3[nH]ccc23)cc1", "observed value": 5.89}
{"item smiles": "O=C(N/N=C/c1ccccc1)Nc1ccc(Oc2ccnc3[nH]ccc23)cc1", "observed value": 4.76}
{"item smiles": "CN1CCN(CCCn2cccc2/C=N/NC(=O)Nc2ccc(Oc3ccnc4[nH]ccc34)cc2)CC1", "observed value": 5.79}
{"item smiles": "O=C(N/N=C/c1cccn1CCN1CCOCC1)Nc1ccc(Oc2ccnc3[nH]ccc23)cc1", "observed value": 5.41}
{"item smiles": "COc1ccc(/C=N/NC(=O)Nc2ccc(Oc3ccnc4[nH]ccc34)c(F)c2)cc1", "observed value": 5.40}

Go through the items and report each one's pIC50.
1. O=C(N/N=C/c1ccc(O)c(Br)c1)Nc1ccc(Oc2ccnc3[nH]ccc23)c(F)c1
2. O=C(N/N=C/c1ccc(F)cc1)Nc1ccc(Oc2ccnc3[nH]ccc23)c(F)c1
3. O=C(N/N=C/c1ccc([N+](=O)[O-])cc1)Nc1ccc(Oc2ccnc3[nH]ccc23)c(F)c1
4. N#Cc1ccc(/C=N/NC(=O)Nc2ccc(Oc3ccnc4[nH]ccc34)c(F)c2)cc1

## Result
1: 5.03; 2: 6.17; 3: 7.70; 4: 5.87

* * *

System: A549
Assay: Antiproliferative activity against human A549 cells after 72 hrs by MTT assay
Type: functional, cell-based
Details: Homo sapiens, A549, 72 h; read-out: IC50
Hi there, I'd appreciate the recorded pIC50 for every entry that follows.
Give bare numbers, as −log10 of the molar value.

Consider the following illustrative entries.
{"item smiles": "O=C(N/N=C/c1ccc(F)cc1)Nc1ccc(Oc2ccnc3[nH]ccc23)cc1", "pIC50": 5.84}
{"item smiles": "CN1CCN(CCCn2cccc2/C=N/NC(=O)Nc2ccc(Oc3ccnc4[nH]ccc34)c(F)c2)CC1", "pIC50": 5.66}

Now examine the next entry.
## Task Tell me the measured pIC50 of O=C(N/N=C/c1ccc(F)cc1Cl)Nc1ccc(Oc2ccnc3[nH]ccc23)c(F)c1 , please.
## Result 8.00
